Biological target: T1, RIG-I full-length (human, UniProt O95786 1-925)
T1 sequence: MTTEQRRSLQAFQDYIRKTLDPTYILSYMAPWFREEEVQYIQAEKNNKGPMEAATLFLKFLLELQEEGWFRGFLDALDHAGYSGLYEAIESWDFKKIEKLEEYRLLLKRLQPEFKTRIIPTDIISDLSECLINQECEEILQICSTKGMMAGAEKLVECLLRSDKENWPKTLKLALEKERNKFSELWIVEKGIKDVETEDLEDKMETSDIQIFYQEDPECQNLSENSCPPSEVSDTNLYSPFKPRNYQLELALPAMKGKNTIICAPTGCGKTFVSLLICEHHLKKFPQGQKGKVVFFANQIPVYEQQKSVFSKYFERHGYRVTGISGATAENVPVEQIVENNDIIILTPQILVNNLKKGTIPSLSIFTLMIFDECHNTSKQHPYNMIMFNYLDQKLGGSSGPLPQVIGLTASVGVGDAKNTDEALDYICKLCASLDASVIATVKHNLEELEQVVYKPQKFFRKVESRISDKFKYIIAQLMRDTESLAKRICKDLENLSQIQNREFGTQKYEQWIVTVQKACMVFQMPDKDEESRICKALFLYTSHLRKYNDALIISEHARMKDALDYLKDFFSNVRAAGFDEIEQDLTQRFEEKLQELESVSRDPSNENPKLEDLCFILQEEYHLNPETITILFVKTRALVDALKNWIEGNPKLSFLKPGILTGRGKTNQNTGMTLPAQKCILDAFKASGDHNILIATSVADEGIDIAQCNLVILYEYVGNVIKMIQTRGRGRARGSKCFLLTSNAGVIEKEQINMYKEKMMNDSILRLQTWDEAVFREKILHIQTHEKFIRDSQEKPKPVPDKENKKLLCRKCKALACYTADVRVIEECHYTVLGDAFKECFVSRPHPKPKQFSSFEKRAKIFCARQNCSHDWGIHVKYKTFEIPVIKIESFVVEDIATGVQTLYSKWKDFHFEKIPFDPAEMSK
Assay: fluorescence anisotropy
pKd: −log10 of the molar value.
readout.label: pKd

>>> number("14bp dsRNA-F (dsRNA, 5'-OH) RNA 1: GGAGAGAACCGCCU RNA 2: AGGCGGUUCUCUCC")
8.92

Cited source: paper PMC3430514
